Measurement notes: Human HepG2 cell viability assay in 384 well format
Assay type: toxicity, cell-based
Parameters: dose 125 nL, time 70.5 hour; concentration not given beside the values
Measurement parameters: HepG2 cells, read-out: Inhibition
Measured property: cytotoxicity at 70.5 h (%)

O=C(NC1CC1)[C@H]1C[C@H]2OCC[C@H]2N(Cc2cccc3ccccc23)C1    -0.842
Cc1ccccc1C(=O)N1CCCn2cnc(CN3CCCC3=O)c2C1    -4.3
CN1CCOC(CNC(=O)Cc2ccccc2F)C1 (configuration not stated)    -8.56
CC1(C(=O)NCCN2CCCCC2)CCCN1C(=O)c1ccccc1 (configuration not stated)    -3.21
Cc1nc2c(C#N)cnn2c(C)c1CCC(=O)N(C)C(C)C(C)C (configuration not stated)    -11.8
CC(CC(=O)c1ccco1)NC(=O)c1ccon1 (configuration not stated)    -8.03
Cc1ccc(C2(CN(C)Cc3snnc3C)CCNCC2)nc1    -1.57
CCCC1c2cccn2CCN1S(=O)(=O)N1CCOCC1 (configuration not stated)    -4.73
CC(COc1ccccc1)NCc1nc(-c2cccnc2)no1 (configuration not stated)    -1.13
Fc1ccc2[nH]c(C3CCCN3CCCn3cccn3)nc2c1 (configuration not stated)    -6.03
NC(=O)Nc1cccc(F)c1C(=O)NC1CCCC1    -3.68
Cc1nccn1-c1ccc(C(C)NCc2ncc[nH]2)cc1 (configuration not stated)    12.6

From: ChEMBL document CHEMBL3507680
